Catalogue of normalized growth values
Experiment: chemical genetic growth profiling, strain panel (AID 1159580);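 also: tested at 20 µM; growth read once vehicle control cultures reached saturation at 30 °C; 1 = growth at the plate median or of vehicle wells; lower values mean less growth of the strain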
Experimental parameters: S. cerevisiae deletion strains, growth OD, locus YKL190W, strain CNB1, stronger effect = lower value
Screen size: about 5,500 compounds; about 2,000 (36%) were called active. Roughly 18% stayed inconclusive and do not appear here. This is one part of the list.
Give the value as a plain number.

# count of solved cases: 2
>>> quantitative_result("C=CCSCC1Nc2cc(Cl)c(S(N)(=O)=O)cc2S(=O)(=O)N1 (stereo not drawn)")
1.01
>>> quantitative_result("Oc1ccc2c(c1)OCC1c3cc4c(cc3OC21)OCO4 (stereo not drawn)")
1.01

Please look at the following molecule next.
CC(C)COCC(CN(Cc1ccccc1)c1ccccc1)N1CCCC1 (stereo not drawn) has a reported normalized growth of 0.923

====

Experiment: chemical genetic growth profiling, strain panel (AID 1159580);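 also: tested at 20 µM; growth read once vehicle control cultures reached saturation at 30 °C; 1 = growth at the plate median or of vehicle wells; lower values mean less growth of the strain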
Experimental parameters: S. cerevisiae deletion strains, growth OD, locus YMR205C, strain PFK2 (second series)
About 2,000 (36%) of roughly 5,500 compounds were called active. Not shown: some 18% with an inconclusive outcome. Rule as the data show it: active = normalized growth mostly below about 0.91 (no sharp cut-off); inconclusive = no clear call, values can overlap the other calls; inactive = mostly above about 0.92. This is one part of the list.
The reply should name one outcome from active, inactive

// below: answered molecules
>>> discrete_label("OC(CN1CCN(c2nc3ccc(Cl)cc3s2)CC1)Cn1ccc2ccccc21 (centres undefined)")
"inactive"
>>> discrete_label("FC(F)(F)c1cccc(-n2c(CSCc3cccc4ccccc34)n[nH]c2=S)c1")
"inactive"
>>> discrete_label("Cc1c(-c2ccnn2C(=O)c2ccco2)cnn1-c1ccccc1")
"inactive"
>>> discrete_label("O=c1c2ccccc2[nH]c(=S)n1-c1cccc(C(F)(F)F)c1")
"inactive"
>>> discrete_label("O=[N+]([O-])c1ccc2oc(C(O)c3cccc(Cl)c3)cc2c1 (centres undefined)")
"inactive"
>>> discrete_label("O=[N+]([O-])c1ccc2oc(C(O)c3ccc(-c4ccccc4)cc3)cc2c1 (centres undefined)")
"inactive"
>>> discrete_label("S=c1[nH]nc(Nc2ccc(I)cc2)s1")
"active"
>>> discrete_label("Cc1ccc(NS(=O)(=O)c2ccc(Cl)cc2)c(N=Cc2cc(Cl)cc(Cl)c2O)c1")
"active"

Turning now to a further molecule:
Incoming: Identify the outcome logged in this assay for the molecule shown: CCCCN(C)C(=O)c1cc([N+](=O)[O-])cc2c1-c1ccc([N+](=O)[O-])cc1C2=C(C#N)C#N
Outgoing: inactive

====

Experiment: chemical genetic growth profiling, strain panel (AID 1159580);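 also: tested at 20 µM; growth read once vehicle control cultures reached saturation at 30 °C; 1 = growth at the plate median or of vehicle wells; lower values mean less growth of the strain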
Experimental parameters: S. cerevisiae deletion strains, growth OD, locus YDL005C, strain med2, stronger effect = lower value
In all, about 5,500 compounds went through this assay and about 2,000 (36%) were called active. Roughly 18% stayed inconclusive and do not appear here. This is one part of the list.
Measurement name: normalized growth
Give the value as a plain number.

>>> quantitative_result("CCNC(=O)CC[C@H](N)C(=O)O")
0.986
>>> quantitative_result("O=C(O)CN1C(=O)c2cccc3cccc(c23)C1=O")
0.974
>>> quantitative_result("CCC(C)(C)C(=O)O[C@H]1C[C@@H](C)C=C2C=C[C@H](C)[C@H](CC[C@@H]3C[C@@H](O)CC(=O)O3)[C@H]21")
1.02

OC(Cn1cncn1)(Cn1cncn1)c1ccc(F)cc1F has a reported normalized growth of 0.966

Clc1cccc(Cl)c1NC1=NCCN1 has a reported normalized growth of 0.996

Cn1c(=O)c2[nH]cnc2n(C)c1=O has a reported normalized growth of 1.02

Cc1ccc(C)c(OCCCC(C)(C)C(=O)O)c1 has a reported normalized growth of 0.982

O=C1[C@H](CCC(O)c2ccc(F)cc2)[C@@H](c2ccc(O)cc2)N1c1ccc(F)cc1 (stereo partly specified) has a reported normalized growth of 0.956

CC(C)[C@@H]1CC[C@@H](C)C[C@H]1O has a reported normalized growth of 0.98

O=C1NC(=O)C(=O)C(=O)N1 has a reported normalized growth of 0.984

C=C1C(=O)O[C@@H]2C[C@@]3(C)CCC[C@H](C)C3=C[C@H]12 has a reported normalized growth of 0.937

O=C1C=C2C=C[C@@H]3C[C@@]2(O1)[C@H]1CCCCN31 has a reported normalized growth of 0.998

Data provenance is PubChem BioAssay AID1159580.
